subject of test: human CD28 (human, UniProt P10747 19-220)
experimental details: cell-based or functional assay
metric name: MLR assay (EC50) (nM)
Answers are plain numbers, in nM.

Example binders with recorded MLR assay (EC50):
1h-239-833 (other) VL: DIQMTQSPSSLSASVGDRVTITCRASQSIYPFLEWYQQKPGKAPKLLIYFTSRLRAGVPSRFSGSGSGTDFTLTISSLQPEDFATYYCLQNVTNPATFSQGTKVEIKR : 7
1h-80-2 (other) VL: DIQMTQSPSSLSASVGDRVTITCRASQRIGSNLAWYQQKPGKAPKLLIYWASLLQSGVPSRFSGSGSETDFTLTISSLQPEDFATYYCQQTRSAPFAFGQGTKVEIKR : 550
1h-239-838 (other) VL: DIQMTQSPSSLSASVGDRVTITCQASQSIYPFLEWYQQKPGKAPKLLIYFTSRLARGVPSRFSGSGSGTDFTLTISSLQPEDFATYYCLQNVTNPATFSQGTRVEIKR : 3
1h-99-264 (other) VH: EVQLLESGGGLVQPGGSLRLSCAASGFTFDKSNMSWVRQAPGKGLEWVSWIEAPGVQTFYADSVRGRFTISRDNSKNTLYLQMNSLRAEDTAVYYCARSPFGPLYGFDYRGQGTLVTVSS : 3
1h-99-265 (other) VH: EVQLLESGGGLVQPGGSLRLSCAASGFTFDKSNMSWARQAPGKGLEWVSWIEASGVQTFYADSVKGRFTISRDNSKNTLYLQMNSLRAEDTAVYYCAKSPFGPLYGFDYRGQGTLVTVSS : 3

Give MLR assay (EC50) for each listed item.
1. 1h-99-221 (other) VH: EVQLLESGGGLVQPGGSLRLSCAASGFTFARSNMSWVRQAPGKGLEWVSWIEDTGTQTFYADSVKGRFTISRDNSKNTLYLQMNSLRAEDTAVYYCAKSPFGPLYGFDYRGQGTLVTVSS
2. 1h-99-260 (other) VH: EVQLLESGGGLVQPGGSLRLSCAASGFTFDSANMSWARQAPGKGLEWVSWIEANGPQTFYADSVKGRFTISRDNSKNTLYLQMNSLRAEDTAVYYCAKSPFGPLYGFDYRGQGTLVTVSS

1: 17; 2: 13

Any idea what MLR assay (EC50) was measured for 1h-99-249 (other) VH: EVQLLESGGGLVQPGGSLRLSCAASGFTFDSANMSWVRQAPGKGLEWVSWIEDIGVQTFYADSVKGRFTISRDNSKNTLYLQMNSLRAEDTAVYYCAKSPFGPLYGFDYRGQGTLVTVSS ?
11
